Target: T1, CaBdf1 BD2 (GST-tagged, wild-type) (Candida albicans (strain SC5314 / ATCC …, UniProt Q5A4W8))
T1 chain: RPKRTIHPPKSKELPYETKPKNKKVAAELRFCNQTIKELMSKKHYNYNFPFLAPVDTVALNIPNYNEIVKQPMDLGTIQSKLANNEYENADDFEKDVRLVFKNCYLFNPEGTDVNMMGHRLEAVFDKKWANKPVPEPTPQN
Experiment: histone peptide array (Active Motif MODified), 1 uM GST-tagged bromodomain, anti-GST detection, normalized mean intensity
Square brackets hold non-standard residues; d marks the D form. Ends that are not written are not given here. pS = N[C@@H](COP(=O)(O)O)C(=O)O; Me2a = not defined here
Would you mind telling me the reported binding score of each entry?

Tell me measured binding score for SGRGKGGKGLGKGGAKRHR (S G R G Kac G G Kac G L G K G G A K R H R) [H4 1-19] please.
0.0326

Tell me measured binding score for ARTKQTARKSTGGKAPRKQ (A R T Kac Q T A Rme2s Kme3 S T G G K A P R K Q) please.
0.00407

Tell me measured binding score for PRKQLATKAARK(Ac)SAPATGG please.
0.0307

Tell me measured binding score for PRKQLATKAAR(Me2a)K(Me3)[pS]APATGG (reading uncertain) please.
0.00296

Tell me measured binding score for ARTKQTARKSTGGKAPRKQ (A R T Kme2 Q T A Rme2s Kac S T G G K A P R K Q) please.
0.00592

Tell me measured binding score for ARTKQTARKSTGGKAPRKQ (A R T K Q T A R Kme1 S T G G K A P R K Q) please.
0.00407

Tell me measured binding score for PRKQLATKAAR(Me2s)K(Me3)[pS]APATGG please.
0.00629
